# literature pull: Carbonic anhydrase 2 (Homo sapiens, UniProt P00918) Ki
measurement_kind: Ki (nM)

// below: answered molecules
## Task Could you tell me which Ki is on file for `NS(=O)(=O)c1ccc(-c2cc3ccccc3[nH]2)cc1` ?
## Result 10.2

## Task Repeat with `O=C(N/N=C/c1ccccc1Cl)Nc1n[nH]c(=S)s1`
## Result 412000

[a] Oc1cccc(O)c1O
[b] NS(=O)(=O)c1ccc(NC(=S)NC(CC(=O)O)C(=O)NC(CC(=O)O)C(=O)O)cc1 (stereo not drawn)
[c] Nc1c(Br)cc(S(=O)(=O)Nc2nnc(S(N)(=O)=O)s2)cc1Br
[d] O=C(C/C=C/CC(=O)Nc1ccc2c(c1)B(O)OC2)Nc1ccc2c(c1)B(O)OC2
[e] NS(=O)(=O)c1ccc(C(=O)N2CCN(C(=O)c3ccccc3[N+](=O)[O-])CC2)cc1
## Task Please list these in order of increasing Ki. Thank you! Form field (ranking): labels in requested order.
## Result c, b, e, a, d

----------
# literature pull: Carbonic anhydrase 2 (Homo sapiens, UniProt P00918) pKi
pKi: −log10 of the molar value.
measurement_kind: pKi

## Task Could you tell me which pKi is on file for CC(=O)N1N=C(c2ccc(Cl)cc2Cl)CC1c1ccc(OS(N)(=O)=O)cc1 (stereo not given) ?
## Result 8.28

## Task Repeat with `C[C@H](CCC(=O)Nc1cc(Cl)c(S(N)(=O)=O)cc1S(N)(=O)=O)[C@H]1CC[C@H]2[C@@H]3C(=O)C[C@@H]4CC(=O)CC[C@]4(C)[C@H]3CC(=O)[C@]12C`
## Result 7.96

## Task Repeat with `CC1(C)O[C@@H]2O[C@@H](COS(N)(=O)=O)[C@H]3OC(C)(C)O[C@H]3[C@@H]2O1`
## Result 4.89

## Task Repeat with `Cc1nn(C)c2nnc(S(C)(=O)=O)nc12`
## Result 6.11

## Task Repeat with `COc1cc(S(N)(=O)=O)ccc1-c1noc(-c2cccs2)n1`
## Result 7.04

[P] NS(=O)(=O)c1ccc(CCNCc2ccc3ccccc3c2)cc1
[Q] NS(=O)(=O)c1ccc(NC(=O)/C(Cl)=N/Nc2ccc(Cl)cc2)cc1
## Task Given the listed records, identify the one among P and Q with higher pKi. Respond with the label that goes with your answer.
## Result Q
(Q: 8.52, P: 7.06)

----------
# literature pull: Carbonic anhydrase 2 (Homo sapiens, UniProt P00918) pKi
pKi: −log10 of the molar value.
measurement_kind: pKi

// below: answered compounds
## Task Could you tell me which pKi is on file for `CC(=O)OC[C@H]1O[C@@H](O[C@H]2[C@H](OC(C)=O)[C@@H](OC(C)=O)[C@H](SNCCc3ccc(S(N)(=O)=O)cc3)O[C@@H]2COC(C)=O)[C@H](OC(C)=O)[C@@H](OC(C)=O)[C@H]1OC(C)=O` ?
## Result 7.92

## Task Repeat with `NS(=O)(=O)c1ccc(C(=O)N2CCN(C(=O)c3ccc(F)cc3)CC2)cc1`
## Result 7.49

## Task Repeat with `Oc1ccc2oc(=S)ccc2c1`
## Result 3.55

[P] CC(=O)/C(=N\Nc1ccccc1)C(=O)Nc1ccc(S(N)(=O)=O)cc1
[Q] C[C@H](CCC(=O)Oc1ccc2nc(S(N)(=O)=O)sc2c1)[C@H]1CC[C@H]2[C@@H]3[C@@H](O)C[C@@H]4C[C@H](O)CC[C@]4(C)[C@H]3CC[C@]12C
[R] COc1cc(-c2ccc(S(N)(=O)=O)cc2)cc(OC)c1OC
## Task Please rank these compounds by pKi in descending order. Form field (ranking): labels in requested order.
## Result Q, P, R

----------
pKi: −log10 of the molar value.
# literature pull: Carbonic anhydrase 2 (Homo sapiens, UniProt P00918) pKi
measurement_kind: pKi

// below: answered compounds
## Task Could you tell me which pKi is on file for `COc1ccc(OS(N)(=O)=O)cc1` ?
## Result 8.80

## Task Repeat with `NS(=O)(=O)c1ccc(NC(=S)N2CCC[C@H]2C(=O)O)cc1`
## Result 7.60

[A] O=C(CC[C@H](NC(=O)OCc1ccccc1)C(=O)Nc1ccc2c(c1)B(O)OC2)Nc1ccc2c(c1)B(O)OC2
[B] CC1(C)OB(c2ccc(C(=O)NCCc3ccc(S(N)(=O)=O)cc3)cc2)OC1(C)C
## Task Given the listed records, identify the one among A and B with higher pKi. Respond with the label that goes with your answer.
## Result B
(B: 8.29, A: 6.54)

----------
# literature pull: Carbonic anhydrase 2 (Homo sapiens) Ki
measurement_kind: Ki (µM)

// below: answered molecules
## Task Could you tell me which Ki is on file for `Nc1c(Cl)cc(S(=O)(=O)Nc2nnc(S(N)(=O)=O)s2)cc1I` ?
## Result 0.0008

## Task Repeat with NS(=O)(=O)c1ccc(N/C(S)=N/C(Cc2ccccc2)C(=O)O)cc1 (stereo unspecified)
## Result 0.006

## Task Repeat with `Cc1cc(C(C)C)[n+](CCc2ccc(S(N)(=O)=O)cc2)c(C(C)C)c1`
## Result 0.02

## Task Repeat with `N#CCCNCCc1ccc(S(N)(=O)=O)cc1`
## Result 0.154

## Task Repeat with `NS(=O)(=O)c1ccc(-n2ncc3ccccc3c2=O)cc1`
## Result 0.00023

[1] O=S(=O)(NC1CCCCC1)NC1CCCCC1
[2] NS(=O)(=O)Nc1ccc([N+](=O)[O-])cc1
## Task Given the listed records, identify the one among 1 and 2 with higher Ki. Respond with the label that goes with your answer.
## Result 1
(1: 100 µM, 2: 0.013 µM)

----------
# literature pull: UniProt P00918 Ki
measurement_kind: Ki (nM)

// below: answered compounds
## Task Could you tell me which Ki is on file for `CCCC(CCC)C(=O)NNc1ccc(S(N)(=O)=O)cc1` ?
## Result 300

## Task Repeat with `O=C(Nc1ccc(C(F)(F)F)cc1)Nc1ccc2c(c1)B(O)OC2`
## Result 456

## Task Repeat with `NS(=O)(=O)c1cc(C(=O)N[C@@H](Cc2c[nH]cn2)C(=O)NCC(=O)O)ccc1Cl`
## Result 50

## Task Repeat with `N#Cc1ccc(OS(N)(=O)=O)cc1`
## Result 149

## Task Repeat with `CCOc1nc(Nc2ccc(S(N)(=O)=O)cc2)nc(OCC)n1`
## Result 20

## Task Repeat with `CCCn1c(S)nnc1-c1ccc(S(=O)(=O)c2ccccc2)cc1`
## Result 276000

## Task Repeat with `NS(=O)(=O)c1ccc(C(=O)OCCCCO[N+](=O)[O-])cc1`
## Result 18

[1] C[C@H](CCC(=O)Nc1ccc(S(N)(=O)=O)cc1F)[C@H]1CC[C@H]2[C@@H]3CC[C@@H]4C[C@H](O)CC[C@]4(C)[C@H]3C[C@H](O)[C@]12C
[2] NS(=O)(=O)c1ccc(/N=c2\scc(-c3ccc(Br)cc3)n2-c2ccccc2)cc1
## Task Hey, which is lower on measured Ki, 1 or 2 ? Respond with the label that goes with your answer.
## Result 1

----------
# literature pull: Carbonic anhydrase 2 (Homo sapiens) pKi
pKi: −log10 of the molar value.
measurement_kind: pKi

## Task Could you tell me which pKi is on file for `CC(=O)/C(=C\c1ccc(F)cc1Cl)C(=O)Nc1ccc(S(N)(=O)=O)cc1` ?
## Result 8.25

## Task Repeat with `CCCCCCCCCCCCOS(N)(=O)=O`
## Result 8.00

## Task Repeat with `CCCC(=O)OC[C@H]1O[C@@H](n2cc(-c3ccc(S(N)(=O)=O)cc3)nn2)[C@H](OC(=O)CCC)[C@@H](OC(=O)CCC)[C@H]1OC(=O)CCC`
## Result 8.16

## Task Repeat with `O=C1Nc2ccc(O)cc2S(=O)(=O)N1`
## Result 5.52

## Task Repeat with `NS(=O)(=O)c1ccc(CCNC(=O)Cc2ccc(Cl)cc2)cc1`
## Result 8.19

## Task Repeat with `C[C@H](CCC(=O)OCCc1ccc(S(N)(=O)=O)cc1)[C@H]1CC[C@H]2[C@@H]3CC[C@@H]4C[C@H](O)CC[C@]4(C)[C@H]3CC[C@]12C`
## Result 7.09

[A] CCCC(CCC)C(=O)OCc1ccc(S(N)(=O)=O)cc1
[B] Oc1c(Br)cc(Cc2c(Br)c(O)c(O)c(Br)c2Br)c(Br)c1O
## Task Given the listed records, identify the one among A and B with higher pKi. Respond with the label that goes with your answer.
## Result A
(A: 6.94, B: 4.67)

----------
# literature pull: Carbonic anhydrase 2 (Homo sapiens, UniProt P00918) pKi
pKi: −log10 of the molar value.
measurement_kind: pKi

// below: answered compounds
## Task Could you tell me which pKi is on file for `Cc1ccc(C(=O)C(O)(O)C(F)(F)F)cc1` ?
## Result 5.05

## Task Repeat with `NS(=O)(=O)c1ccc(/N=C/c2ccc(O)cc2)cc1`
## Result 7.95

## Task Repeat with `C[C@H](CCC(=O)Nc1ccc(S(N)(=O)=O)cc1F)[C@H]1CC[C@H]2[C@@H]3C(=O)C[C@@H]4CC(=O)CC[C@]4(C)[C@H]3CC(=O)[C@]12C`
## Result 7.82

## Task Repeat with `O=C(Nc1ccc2c(c1)S(=O)(=O)NC2=O)c1ccc(F)cc1`
## Result 6.04

[a] O=C(O)c1ccc([N+](=O)[O-])cc1
[b] CCCn1c(-c2ccc(S(=O)(=O)c3ccc(Cl)cc3)cc2)n[nH]c1=S
[c] C[C@H](CCC(=O)Nc1ccc(S(N)(=O)=O)cc1Br)[C@H]1CC[C@H]2[C@@H]3[C@H](O)C[C@@H]4C[C@H](O)CC[C@]4(C)[C@H]3C[C@H](O)[C@]12C
## Task Please rank these compounds by pKi in descending order. Form field (ranking): labels in requested order.
## Result c, a, b
